target: recombinant human Mcl-1 (residues 171-327) / Bim interaction (Homo sapiens (Human), UniProt Q07820); assay: biochemical; format: binding; details: TR-FRET, Mcl-1(171-327) / biotin-Bim (51-76); read-out: Mcl-1 HTRF IC50
Sequence (Q07820 171-327): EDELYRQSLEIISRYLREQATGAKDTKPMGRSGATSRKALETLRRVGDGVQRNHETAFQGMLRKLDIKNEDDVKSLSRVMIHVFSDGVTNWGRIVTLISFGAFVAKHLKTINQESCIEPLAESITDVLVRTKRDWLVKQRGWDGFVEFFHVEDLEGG
property: pIC50
The scale used: pIC50 is minus the common logarithm of the concentration in molar units.

Cc1ccc([C@]2(O)/C=C/C[C@H](C)[C@@H](C)S(=O)(=O)NC(=O)c3ccc4c(c3)N(C[C@@H]3CC[C@H]32)C[C@@]2(CCCc3cc(Cl)ccc32)CO4)nc1 (single isomer, unassigned) | 9.21
CO[C@@]1(c2ccc(F)nc2)/C=C/C[C@H](C)[C@@H](C)S(=O)(=O)NC(=O)c2ccc3c(c2)N(C[C@@H]2CC[C@H]21)C[C@@]1(CCCc2cc(Cl)ccc21)CO3 (single isomer, unassigned) | 9.24
COC[C@@]1(O)CCC[C@H](C)[C@@H](C)S(=O)(=O)NC(=O)c2ccc3c(c2)N(C[C@@H]2CC[C@H]21)C[C@@]1(CCCc2cc(Cl)ccc21)CO3 | 8.77
C[C@@H]1[C@@H](C)CCC[C@@](O)(Cc2nccs2)[C@@H]2CC[C@H]2CN2C[C@@]3(CCCc4cc(Cl)ccc43)COc3ccc(cc32)C(=O)NS1(=O)=O (single isomer, unassigned) [Example 100251] | 8.48
C[C@@H]1[C@@H](C)C/C=C/[C@@](O)(C#CCC2CCOCC2)[C@@H]2CC[C@H]2CN2C[C@@]3(CCCc4cc(Cl)ccc43)COc3ccc(cc32)C(=O)NS1(=O)=O | 9.64

query: Look at this compound and give its reported pIC50. C[C@@H]1[C@@H](C)CCC[C@@](O)(C#CCCN2CCOCC2)[C@@H]2CC[C@H]2CN2C[C@@]3(CCCc4cc(Cl)ccc43)COc3ccc(cc32)C(=O)NS1(=O)=O [Example 100371]
result: 9.41

query: Look at this compound and give its reported pIC50. C[C@@H]1[C@@H](C)C/C=C/[C@@](O)([C@@H]2CCN(C)C2=O)[C@@H]2CC[C@H]2CN2C[C@@]3(CCCc4cc(Cl)ccc43)COc3ccc(cc32)C(=O)NS1(=O)=O [Example 100106]
result: 9.84

query: Look at this compound and give its reported pIC50. C[C@@H]1[C@@H](C)C/C=C/[C@@](O)(c2cncc(-c3ccccc3)c2)[C@@H]2CC[C@H]2CN2C[C@@]3(CCCc4cc(Cl)ccc43)COc3ccc(cc32)C(=O)NS1(=O)=O (single isomer, unassigned)
result: 9.10

query: Look at this compound and give its reported pIC50. "CC#C[C@]1(OC)CCC[C@H](C)[C@@H](C)S(=O)(=O)NC(=O)c2ccc3c(c2)N(C[C@@H]2CC[C@H]21)C[C@@]1(CCCc2cc(Cl)ccc21)CO3"
result: 8.19
